// reported neutralization IC50 for each item listed
tested-target: Env of HIV-1 strain REJO4541.67 (HIV-1)
protocol-summary: cell-based or functional assay
Could you give me the number in µg/mL? Just the number is fine.

{"binder": "γ23κ11 (antibody, V domains shown) VH: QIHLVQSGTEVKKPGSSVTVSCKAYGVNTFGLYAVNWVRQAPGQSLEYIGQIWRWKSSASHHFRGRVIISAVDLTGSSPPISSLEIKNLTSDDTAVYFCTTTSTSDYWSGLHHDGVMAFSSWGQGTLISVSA VL: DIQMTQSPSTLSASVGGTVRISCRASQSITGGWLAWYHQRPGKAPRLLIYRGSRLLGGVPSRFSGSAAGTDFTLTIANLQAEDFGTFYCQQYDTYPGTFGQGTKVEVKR", "neutralization IC50 [µg/mL]": 0.14}

Now consider a different binder.
Need neutralization IC50, item γ52κ5 (antibody, V domains shown) VH: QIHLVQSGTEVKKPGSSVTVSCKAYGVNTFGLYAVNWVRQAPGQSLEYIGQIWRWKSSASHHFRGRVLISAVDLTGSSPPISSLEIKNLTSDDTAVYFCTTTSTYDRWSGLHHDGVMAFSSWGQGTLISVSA VL: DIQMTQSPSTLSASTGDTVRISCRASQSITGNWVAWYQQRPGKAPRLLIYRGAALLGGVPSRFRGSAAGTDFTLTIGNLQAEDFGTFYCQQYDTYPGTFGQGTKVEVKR 0.035
